Target: HLA B*0801 (Homo sapiens, UniProt P01889, A93T/A95T/D138N/E176V/E187T/K202T/Q94N/R180D/S35A/V36M/Y33D/Y91F)
Test: biochemical
Where a SMILES comes first, the peptide text is derived from it.
Sorting guide: entries reporting IC50 beneath 2 nM go in the Y pile, the rest go in the N pile.

compound	assigned class
CC[C@H](C)[C@H](NC(=O)[C@H](CC(=O)O)NC(=O)[C@H](CC(C)C)NC(=O)[C@@H]1CCCN1C(=O)[C@H](CCCCN)NC(=O)[C@H](CC(C)C)NC(=O)[C@H](CCCNC(=N)N)NC(=O)[C@H](C)NC(=O)[C@@H](N)CC(N)=O)C(=O)O [3102.0711] (H-NARLKPLDI-OH)	Y
CSCC[C@H](NC(=O)[C@H](CCCCN)NC(=O)[C@@H](N)CCC(=O)O)C(=O)N[C@@H](CCCNC(=N)N)C(=O)N[C@@H](CCCNC(=N)N)C(=O)N[C@@H](CCC(=O)O)C(=O)N[C@@H](CCCNC(=N)N)C(=O)N[C@@H](C)C(=O)N[C@@H](C)C(=O)O [3102.0739] (H-EKMRRERAA-OH)	Y
CC[C@H](C)[C@H](NC(=O)[C@@H](N)Cc1ccccc1)C(=O)N[C@@H](Cc1ccccc1)C(=O)N[C@@H](CC(C)C)C(=O)N[C@@H](CCCCN)C(=O)N[C@@H](CCCCN)C(=O)N[C@@H](CC(N)=O)C(=O)N[C@@H](CCC(=O)O)C(=O)N[C@@H](CC(C)C)C(=O)O [3102.0673] (H-FIFLKKNEL-OH)	N
CC[C@H](C)[C@H](NC(=O)[C@@H](NC(=O)[C@H](CO)NC(=O)[C@H](CCCNC(=N)N)NC(=O)[C@H](CCC(=O)O)NC(=O)[C@H](CCCCN)NC(=O)[C@H](CCSC)NC(=O)[C@@H](N)CCSC)[C@@H](C)O)C(=O)N[C@@H](CC(C)C)C(=O)O [3102.0596] (H-MMKERSTIL-OH)	N
CC[C@H](C)[C@H](NC(=O)[C@H](C)NC(=O)[C@H](CC(C)C)NC(=O)[C@@H](NC(=O)[C@H](CCCCN)NC(=O)[C@H](CCCNC(=N)N)NC(=O)[C@H](CCCCN)NC(=O)[C@H](CC(N)=O)NC(=O)[C@@H](N)CO)C(C)C)C(=O)O [3102.0561] (H-SNKRKVLAI-OH)	Y

State whether 2 nM exceeds IC50 recorded for CC[C@H](C)[C@H](NC(=O)[C@H](Cc1c[nH]cn1)NC(=O)[C@H](Cc1ccccc1)NC(=O)[C@H](CCCNC(=N)N)NC(=O)[C@@H](NC(=O)[C@@H](N)CO)[C@@H](C)CC)C(=O)N[C@@H](CCCCN)C(=O)N[C@@H](CCC(=O)O)C(=O)N[C@@H](CC(C)C)C(=O)O [3102.0695] (H-SIRFHIKEL-OH) .
Y

Entry to check: CC(C)C[C@H](NC(=O)[C@H](CO)NC(=O)CNC(=O)[C@H](Cc1ccccc1)NC(=O)[C@@H](NC(=O)[C@H](CCC(N)=O)NC(=O)[C@H](CCCCN)NC(=O)[C@H](Cc1ccccc1)NC(=O)[C@@H](N)Cc1ccccc1)[C@@H](C)O)C(=O)O [3102.0697] (H-FFKQTFGSL-OH)
Y

###

Target: HLA A*3001 (Homo sapiens, UniProt P04439, D140H/D185E/E176W/F33S/G80R/H175R/K168Q/R138E/R41S)
Assay: biochemical
Where a SMILES comes first, the peptide text is derived from it.
measured property: pIC50
Scale explanation: pIC50 corresponds to minus log10 of a concentration expressed in moles per litre.

Known results for compounds:
compound	pIC50
CC[C@H](C)[C@H](NC(=O)[C@H](CCCCN)NC(=O)[C@@H](NC(=O)[C@@H](N)Cc1c[nH]cn1)[C@@H](C)O)C(=O)N[C@@H](CC(=O)O)C(=O)N[C@@H](CO)C(=O)N[C@@H](CCSC)C(=O)N[C@@H](Cc1ccccc1)C(=O)N[C@@H](CC(C)C)C(=O)O [3102.0016] (H-HTKIDSMFL-OH)	8.82
CC[C@H](C)[C@H](N)C(=O)N[C@@H](CO)C(=O)N[C@@H](CCCNC(=N)N)C(=O)N[C@@H](CC(N)=O)C(=O)N[C@@H](CCCCN)C(=O)N[C@@H](CC(N)=O)C(=O)N[C@H](C(=O)N[C@@H](Cc1ccccc1)C(=O)N[C@H](C(=O)O)C(C)C)[C@@H](C)CC [3102.0199] (H-ISRNKNIFV-OH)	8.14
CC(C)[C@H](NC(=O)[C@@H](N)CCCCN)C(=O)N[C@@H](Cc1ccccc1)C(=O)N[C@H](C(=O)N1CCC[C@H]1C(=O)N[C@@H](C)C(=O)N1CCC[C@H]1C(=O)N[C@@H](Cc1ccccc1)C(=O)NCC(=O)O)C(C)C [3102.0015] (H-KVFVPAPFG-OH)	8.18
CC(C)C[C@H](NC(=O)[C@H](Cc1ccccc1)NC(=O)[C@@H](NC(=O)CNC(=O)[C@H](Cc1ccc(O)cc1)NC(=O)[C@H](CCCNC(=N)N)NC(=O)[C@H](Cc1ccc(O)cc1)NC(=O)[C@@H](N)CCCCN)[C@@H](C)O)C(=O)N[C@@H](Cc1ccc(O)cc1)C(=O)O [3102.0156] (H-KYRYGTFLY-OH)	8.96
CC[C@H](C)[C@H](NC(=O)[C@H](Cc1ccc(O)cc1)NC(=O)[C@@H](NC(=O)[C@@H](N)CCCCN)C(C)C)C(=O)N[C@@H](CC(N)=O)C(=O)N[C@@H](Cc1c[nH]cn1)C(=O)N1CCC[C@H]1C(=O)N[C@@H](Cc1ccccc1)C(=O)N[C@@H](CCSC)C(=O)O [3102.0124] (H-KVYINHPFM-OH)	9.28
CC[C@H](C)[C@H](NC(=O)[C@H](CCCNC(=N)N)NC(=O)[C@H](CCC(N)=O)NC(=O)[C@@H](N)CCSC)C(=O)N[C@H](C(=O)N[C@@H](CO)C(=O)N[C@@H](CC(C)C)C(=O)N[C@@H](CO)C(=O)N[C@H](C(=O)O)C(C)C)[C@@H](C)CC [3102.0069] (H-MQRIISLSV-OH)	8.06

Recorded pIC50 of CC(C)[C@H](NC(=O)[C@H](Cc1ccccc1)NC(=O)[C@@H](NC(=O)[C@H](Cc1c[nH]cn1)NC(=O)[C@H](CCC(=O)O)NC(=O)[C@H](CCCNC(=N)N)NC(=O)[C@@H](NC(=O)[C@@H](N)CCCCN)C(C)C)[C@@H](C)O)C(=O)N[C@@H](CCCCN)C(=O)O [3102.0071] (H-KVREHTFVK-OH) , please.
8.68

###

Biological target: HLA A*3001 (Homo sapiens, UniProt P04439, D140H/D185E/E176W/F33S/G80R/H175R/K168Q/R138E/R41S)
Assay: biochemical
Where a SMILES comes first, the peptide text is derived from it.
measured property: IC50

Need IC50, item CC(C)C[C@H](NC(=O)[C@H](CCCCN)NC(=O)[C@H](Cc1ccccc1)NC(=O)[C@@H](N)CCCCN)C(=O)N[C@H](C(=O)N[C@@H](CC(C)C)C(=O)N1CCC[C@H]1C(=O)N[C@@H](CC(N)=O)C(=O)N[C@@H](CCCCN)C(=O)O)[C@@H](C)O [3102.0261] (H-KFKLTLPNK-OH)
12 nM

Next record, please: CC[C@H](C)[C@H](NC(=O)[C@H](CC(C)C)NC(=O)[C@H](C)NC(=O)[C@@H](NC(=O)[C@H](Cc1c[nH]cn1)NC(=O)[C@@H](NC(=O)[C@@H](N)CCCNC(=N)N)[C@@H](C)O)[C@@H](C)O)C(=O)N[C@@H](Cc1ccccc1)C(=O)N[C@@H](CC(C)C)C(=O)O [3102.0094] (H-RTHTALIFL-OH)
0.7 nM

Now consider CC[C@H](C)[C@H](NC(=O)[C@H](CO)NC(=O)[C@@H](NC(=O)[C@@H](N)CCCCN)C(C)C)C(=O)N[C@@H](CC(C)C)C(=O)N[C@@H](Cc1c[nH]cn1)C(=O)N1CCC[C@H]1C(=O)N[C@H](C(=O)N[C@@H](CO)C(=O)O)[C@@H](C)CC [3102.0159] (H-KVSILHPIS-OH) .
11 nM

###

Biological target: H-2 K^k (Mus musculus)
Sequence (P01887 21-119): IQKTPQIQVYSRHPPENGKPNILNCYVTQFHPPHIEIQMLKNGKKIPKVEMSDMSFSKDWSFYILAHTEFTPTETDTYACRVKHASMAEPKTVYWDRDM
Sequence (P04223 22-369): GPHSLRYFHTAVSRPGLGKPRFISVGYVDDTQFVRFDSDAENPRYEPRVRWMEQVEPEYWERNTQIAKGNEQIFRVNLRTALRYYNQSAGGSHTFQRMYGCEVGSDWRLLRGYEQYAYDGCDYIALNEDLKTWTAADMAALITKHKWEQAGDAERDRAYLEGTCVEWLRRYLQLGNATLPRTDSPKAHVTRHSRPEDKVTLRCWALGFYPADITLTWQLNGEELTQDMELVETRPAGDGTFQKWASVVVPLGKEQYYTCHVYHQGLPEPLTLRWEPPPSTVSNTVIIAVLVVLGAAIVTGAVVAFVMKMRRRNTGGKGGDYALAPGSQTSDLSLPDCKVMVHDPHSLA
Assay type: binding
Normalized average relative binding affinity(ARB) values, listed per item
Output spec: single numeric token, no unit.

Suppose we examine the sequence XXXXLXXXX [3064.0090] ; what Normalized average relative binding affinity(ARB) value has been reported?
0.11

This collection of values is drawn from paper PMC2248166.
